molecular target: ERp5 (Homo sapiens (Human)); assay: Insulin turbidimetric assay counter screen, ERp5; format: biochemical; conditions: Table B; read-out: Counter Screen: Selectivity against other thiol isomerases IC50 ERp5
Sequence (Q15084 20-440, species assumed): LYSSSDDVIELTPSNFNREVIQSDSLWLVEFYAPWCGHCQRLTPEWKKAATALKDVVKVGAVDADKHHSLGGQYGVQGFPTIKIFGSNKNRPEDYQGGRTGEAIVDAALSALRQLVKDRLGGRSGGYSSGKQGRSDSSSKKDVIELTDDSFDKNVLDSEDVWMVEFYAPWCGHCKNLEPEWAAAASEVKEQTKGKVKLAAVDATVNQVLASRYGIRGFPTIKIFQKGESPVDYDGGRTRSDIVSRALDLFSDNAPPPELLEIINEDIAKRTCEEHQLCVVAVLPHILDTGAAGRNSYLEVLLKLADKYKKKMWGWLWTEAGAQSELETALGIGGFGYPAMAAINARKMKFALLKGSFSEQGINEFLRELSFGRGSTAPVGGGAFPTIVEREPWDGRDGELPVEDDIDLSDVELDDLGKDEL
pIC50: −log10 of the molar value.
Assay Metric: pIC50

Consider the reported pIC50 for these compounds:
INSERT INTO results (compound, assay_metric, result) VALUES
  ('CC(C)OC(=O)C1(CCOc2ccccc2)CCN(Cc2ccc(O)c(Cl)c2)CC1 [Compound 13]', 'pIC50', '< 4.52'),
  ('CCOC(=O)C1(CCOc2ccccc2)CCN(Cc2ccc(O)c(Cl)c2)CC1 [Compound 1]', 'pIC50', '< 4.52');

Could you now look at the following compound, please?
Query: Consider the compound CC(C)(C)OC(=O)C1(CCOc2ccccc2)CCN(Cc2ccc(O)c(Cl)c2)CC1 [Compound 14] tested on ERp5 (Homo sapiens (Human)); state its pIC50.
Response: < 4.52

---

Exercise: state measured IC50 for each of the compounds provided.
molecular target: human PDI (Homo sapiens (Human), UniProt P07237); experiment: Insulin turbidimetric assay of PDI reductase activity; format: biochemical; details: Table B; read-out: PDI_ Inhibition_ IC50
Sequence (P07237 18-508): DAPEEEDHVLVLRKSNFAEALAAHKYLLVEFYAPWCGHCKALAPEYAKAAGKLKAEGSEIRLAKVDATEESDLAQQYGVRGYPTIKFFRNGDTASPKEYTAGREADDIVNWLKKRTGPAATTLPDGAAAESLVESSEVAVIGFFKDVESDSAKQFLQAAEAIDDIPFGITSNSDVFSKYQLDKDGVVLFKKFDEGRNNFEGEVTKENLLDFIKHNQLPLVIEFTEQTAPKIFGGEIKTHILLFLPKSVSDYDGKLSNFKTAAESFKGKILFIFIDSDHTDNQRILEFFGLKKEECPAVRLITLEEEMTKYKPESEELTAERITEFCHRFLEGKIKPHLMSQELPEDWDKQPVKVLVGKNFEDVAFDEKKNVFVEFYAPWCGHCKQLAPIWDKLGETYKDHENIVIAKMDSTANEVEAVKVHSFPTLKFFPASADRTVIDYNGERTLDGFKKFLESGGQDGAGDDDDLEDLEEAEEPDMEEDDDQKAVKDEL

INSERT INTO assay_data (compound, tested_system, result) VALUES
  ('CCOC(=O)C1(CCOc2ccccc2)CCN(C(=O)c2ccc(O)c(Cl)c2)CC1 [Compound 9]', 'human PDI (Homo sapiens (Human), UniProt P07237)', '2.25 µM'),
  ('O=C(Nc1ccccc1)C1(CCOc2ccccc2)CCN(Cc2ccc(O)c(Cl)c2)CC1 [Compound 19]', 'human PDI (Homo sapiens (Human), UniProt P07237)', '22.5 µM'),
  ('CC(C)OC(=O)C1(CCOc2ccccc2)CCN(Cc2ccc(O)c(Cl)c2)CC1 [Compound 13]', 'human PDI (Homo sapiens (Human), UniProt P07237)', '0.85 µM');

// switching to the query compound
Query: Report IC50, nothing else, for this compound: O=C(NC1CCCC1)C1(CCOc2ccccc2)CCN(Cc2ccc(O)c(Cl)c2)CC1 [Compound 17]
Response: 4 µM

---

Target: human PDI (Homo sapiens (Human), UniProt P07237)
Test: Insulin turbidimetric assay of PDI reductase activity
Assay type: biochemical
Conditions: insulin reductase assay, recombinant human PDI; read-out: PDI_Inhibition_ IC50
Experimental: PDI inhibitors were evaluated in an insulin turbidimetric assay to assess their ability to block the reductase activity of PDI. The assay measured the aggregation of insulin chains by monitoring absorbance at 650 nm as previously described in Jasuja, R. et al. Protein disulfide isomerase inhibitors constitute a new class of antithrombotic agents. […] When PDI is inhibited, there is a decrease in aggregation of insulin, and therefore a decrease in absorbance signal at 650 nm. […]
Assay Metric: log10(IC50) (log10 of the value in µM)
Recall that a logarithmic scale is used here: each number is log10 of IC50 in µM.

# count of solved cases: 4
INSERT INTO assay_data (mol_smiles, assay_metric, result_number) VALUES
  ('O=C(Nc1ccccc1)C1(CCOc2ccccc2)CCN(Cc2ccc(O)c(Cl)c2)CC1', 'log10(IC50)', 1.35),
  ('CC(C)OC(=O)C1(CCOc2ccccc2)CCN(Cc2ccc(O)c(Cl)c2)CC1', 'log10(IC50)', -0.07),
  ('CCOC(=O)C1(CCOc2ccccc2)CCN(C(=O)c2ccc(O)c(Cl)c2)CC1', 'log10(IC50)', 0.35),
  ('CCN(C)C(=O)C1(CCOc2ccccc2)CCN(Cc2ccc(O)c(Cl)c2)CC1', 'log10(IC50)', 0.48);

Please supply log10(IC50) for each of the following items, keeping them in order.
1. O=C(NC1CCCC1)C1(CCOc2ccccc2)CCN(Cc2ccc(O)c(Cl)c2)CC1
2. CCOC(=O)C1(CCOc2ccccc2)CCN(Cc2ccc(O)c(Cl)c2)CC1
3. CC(C)(C)OC(=O)C1(CCOc2ccccc2)CCN(Cc2ccc(O)c(Cl)c2)CC1

Response:
1. 0.60
2. -0.60
3. -0.19
